The origin of these recorded values is patent US7101878B1.

SYSTEM_NAME: mouse GnRH receptor (Mus musculus, UniProt Q01776)
Construct: expressed in transfected cells; host or cells: 293 cells
ASSAY_OVERVIEW: Radioligand binding, 125I-GnRH-A, 293 cells expressing mouse GnRH receptors
EXPERIMENTAL_SETUP: 10 uM; read-out: % Inhib. @ 10 uM mGnRH
Assign Condition met whenever inhibition at 10 µM does not fall below 60%; assign Condition not met whenever it does.

Solved cases below.
Cc1cc2c(cc1Cc1ccc(C(=O)NC(C)(C)CC(C)(C)C)o1)C(C)(C)CCC2(C)C [drawing 1577]: Condition met
Cc1cc2c(cc1Cc1ccc(C(=O)N(Cc3cccnc3)Cc3ccc(Cl)c(Cl)c3)o1)C(C)(C)CCC2(C)C: Condition met
Cc1cc2c(cc1Cc1ccc(C(=O)N(CC#N)CC#N)o1)C(C)(C)CCC2(C)C: Condition met
Cc1cc2c(cc1Cc1ccc(C(=O)N(Cc3ccccc3)Cc3ccccn3)o1)C(C)(C)CCC2(C)C: Condition met
Cc1cc2c(cc1Cc1ccc(C(=O)N(CCO)CCO)o1)C(C)(C)CCC2(C)C: Condition not met

Quick check: does Cc1cc2c(cc1Cc1ccc(C(=O)N3CCN(c4ccccc4O)CC3)o1)C(C)(C)CCC2(C)C have inhibition at 10 µM greater than or equal to 60%?
Condition not met

Quick check: does Cc1cc2c(cc1Cc1ccc(C(=O)N(C)Cc3cccc4ccccc34)o1)C(C)(C)CCC2(C)C have inhibition at 10 µM greater than or equal to 60%?
Condition not met

Quick check: does Cc1cc2c(cc1Cc1ccc(C(=O)N[C@H](C)c3ccc([N+](=O)[O-])cc3)o1)C(C)(C)CCC2(C)C have inhibition at 10 µM greater than or equal to 60%?
Condition not met

###

SYSTEM_NAME: mouse GnRH receptor (Mus musculus, UniProt Q01776)
Construct: expressed in transfected cells; host or cells: 293 cells
Sequence (Q01776 1-327): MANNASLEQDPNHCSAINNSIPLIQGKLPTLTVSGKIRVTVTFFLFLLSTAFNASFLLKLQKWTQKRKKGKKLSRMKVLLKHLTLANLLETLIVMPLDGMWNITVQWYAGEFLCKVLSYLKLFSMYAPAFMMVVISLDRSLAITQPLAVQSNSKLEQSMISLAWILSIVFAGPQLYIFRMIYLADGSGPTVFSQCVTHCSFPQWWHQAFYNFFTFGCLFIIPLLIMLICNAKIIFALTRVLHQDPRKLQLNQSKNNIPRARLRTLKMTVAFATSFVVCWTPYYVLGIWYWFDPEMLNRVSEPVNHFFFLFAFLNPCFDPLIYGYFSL
ASSAY_OVERVIEW: Radioligand binding, 125I-GnRH-A, 293 cells expressing mouse GnRH receptors
EXPERIMENTAL_SETUP: 10 uM; read-out: % Inhib. @ 10 uM mGnRH
Each entry below lists one item and its recorded inhibition at 10 µM value.

Please list inhibition at 10 µM recorded for the compound CCN(Cc1ccccc1)C(=O)c1ccc(Cc2cc3c(cc2C)C(C)(C)CCC3(C)C)o1
86%

Please list inhibition at 10 µM recorded for the compound Cc1cc2c(cc1Cc1ccc(C(=O)NC(CO)(CO)CO)o1)C(C)(C)CCC2(C)C
13%

Please list inhibition at 10 µM recorded for the compound CCN1CC(N(CCC(C)c2ccccc2)C(=O)c2ccc(Cc3cc4c(cc3C)C(C)(C)CCC4(C)C)o2)CN1CC (stereo not shown) [drawing 1568]
95%

Please list inhibition at 10 µM recorded for the compound Cc1cc2c(cc1Cc1ccc(C(=O)N(Cc3ccc(O)cc3)C3CCN(Cc4ccccc4)C3)o1)C(C)(C)CCC2(C)C (stereo not shown)
82%

###

SYSTEM_NAME: rat GnRH receptor (Rattus norvegicus, UniProt P30969)
ASSAY_OVERVIEW: Radioligand binding, 125I-GnRH-A, rat pituitary membranes
Parameters: membranes were prepared from rat pituitary; from tissue; host or cells: rat pituitary
EXPERIMENTAL_SETUP: read-out: rGnRH IC50
Checkbox rule: IC50 lower than 40 nM = 1.0; IC50 not lower than 40 nM = 0.0.

Solved cases below.
COc1cc(OC)c(NC(=O)c2ccc(Cc3cc4c(cc3C)C(C)(C)CCC4(C)C)o2)c(OC)c1: 1.0
COc1ccc(OC)c(NC(=O)c2ccc(Cc3cc4c(cc3C)C(C)(C)CCC4(C)C)o2)c1: 0.0
COCCNc1nccc(NCc2cccc(CNC(=O)c3ccc(Cc4cc5c(cc4C)C(C)(C)CCC5(C)C)o3)c2)n1: 1.0
COc1cc(OC)c(NC(=O)c2ccc(Cc3c(C)ccc4c3OCCC4(C)C)o2)c(OC)c1: 0.0
Cc1cc2c(cc1Cc1ccc(C(=O)NCc3cccc(Cl)c3)o1)C(C)(C)CCC2(C)C: 0.0

# input for lookup
Field: below-cutoff. Rule: recorded IC50 strictly less than 40 nM. Subject: Cc1cc(NS(=O)(=O)c2ccc(NC(=O)c3ccc(Cc4cc5c(cc4C)C(C)(C)CCC5(C)C)o3)cc2)no1
0.0

###

SYSTEM_NAME: mouse GnRH receptor (Mus musculus, UniProt Q01776)
Construct: expressed in transfected cells; host or cells: 293 cells
Sequence (Q01776 1-327): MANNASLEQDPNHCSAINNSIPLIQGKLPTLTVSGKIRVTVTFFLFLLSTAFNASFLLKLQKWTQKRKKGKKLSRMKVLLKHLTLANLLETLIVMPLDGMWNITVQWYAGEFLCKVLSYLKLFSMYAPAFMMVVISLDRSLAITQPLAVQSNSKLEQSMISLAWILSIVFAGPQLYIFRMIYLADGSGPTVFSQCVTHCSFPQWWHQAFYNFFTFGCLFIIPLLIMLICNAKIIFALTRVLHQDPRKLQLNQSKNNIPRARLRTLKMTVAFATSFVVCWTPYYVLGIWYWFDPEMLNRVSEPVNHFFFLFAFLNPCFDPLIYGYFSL
ASSAY_OVERVIEW: Radioligand binding, 125I-GnRH-A, 293 cells expressing mouse GnRH receptors
EXPERIMENTAL_SETUP: 1 h, substrate remaining; 10 uM compound; closer to zero = closer to 100% inhibition; read-out: S%R 10 uM mGnRHR
PROPERTY_NAME: remaining activity at 10 µM (%)
Answer format: numeric, % implied, no suffix.

Some entries whose results are on file:
Cc1cc2c(cc1Cc1ccc(C(=O)NCC3(O)CCCCC3)o1)C(C)(C)CCC2(C)C: 36
Cc1cc2c(cc1Cc1ccc(C(=O)N3CCC(O)CC3)o1)C(C)(C)CCC2(C)C: 23
Cc1cc2c(cc1Cc1ccc(C(=O)N(CCN(C)C)Cc3ccccc3)o1)C(C)(C)CCC2(C)C: -4

Switching to the query record.
Please list remaining activity at 10 µM recorded for the compound Cc1cc2c(cc1Cc1ccc(C(=O)NCCCN3CCCCC3C)o1)C(C)(C)CCC2(C)C (stereo not shown)
-7

###

SYSTEM_NAME: rat GnRH receptor (Rattus norvegicus, UniProt P30969)
Sequence (P30969 1-327): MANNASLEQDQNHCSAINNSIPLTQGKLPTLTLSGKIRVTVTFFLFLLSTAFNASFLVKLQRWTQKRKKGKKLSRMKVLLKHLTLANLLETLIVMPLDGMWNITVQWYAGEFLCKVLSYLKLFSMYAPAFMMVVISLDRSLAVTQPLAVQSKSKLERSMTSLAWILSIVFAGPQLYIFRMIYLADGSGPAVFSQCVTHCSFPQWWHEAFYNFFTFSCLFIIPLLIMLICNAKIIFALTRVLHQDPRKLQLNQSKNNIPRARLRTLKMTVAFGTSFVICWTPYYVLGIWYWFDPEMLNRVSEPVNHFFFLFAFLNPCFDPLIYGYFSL
ASSAY_OVERVIEW: Radioligand binding, 125I-GnRH-A, rat pituitary membranes
Design: membranes were prepared from rat pituitary; from tissue; host or cells: rat pituitary
EXPERIMENTAL_SETUP: read-out: rGnRH IC50
PROPERTY_NAME: pIC50
Remember, pIC50 is on a log scale: it is -log10 of the molar concentration.

Please list pIC50 recorded for the molecule Cc1cc2c(cc1Cc1ccc(C(=O)NC3CCNC3)o1)C(C)(C)CCC2(C)C (centres unmarked)
5.04

Please list pIC50 recorded for the molecule Cc1ccccc1CNC(=O)c1ccc(Cc2cc3c(cc2C)C(C)(C)CCC3(C)C)o1
6.82

Please list pIC50 recorded for the molecule COC(=O)c1cc(OC)c(OC)c(OC)c1NC(=O)c1ccc(Cc2cc3c(cc2C)C(C)(C)CCC3(C)C)o1
6.37

Please list pIC50 recorded for the molecule COc1cc(OC)c(C(C)=O)cc1NC(=O)c1ccc(Cc2cc3c(cc2C)C(C)(C)CCC3(C)C)o1
7.52

###

Each entry below lists one item and its recorded half-life value.
ASSAY_OVERVIEW: Pharmacokinetic studies / bioavailability in rats
Type: in vivo, rat
EXPERIMENTAL_SETUP: female, rat, plasma, rat female
Write down the value, and be sure its unit follows.

Some entries whose results are on file:
COc1cccc(OC)c1NC(=O)c1ccc(Cc2c(C)c(C)c(Br)c(C)c2C)o1: 4.6 h
COc1cc(OC)c(NC(=O)c2ccc(Cc3c(OC)cc(C)c(Cl)c3C)o2)c(OC)c1: 2.4 h
COc1cc(OC)c(NC(=O)c2ccc(Cc3cc(C(C)(C)C)ccc3C)o2)c(OC)c1: 2 h
COc1cc(OC)c(NC(=O)c2ccc(Cc3cc4c(cc3C)C(C)(C)CCC4(C)C)o2)c(OC)c1: 1.7 h
Cc1ccc(C(C)(C)C)cc1Cc1ccc(C(=O)Nc2ccc3[nH]ccc3c2)o1: 1.6 h

Please list half-life recorded for the compound COc1cc2c(cc1Cc1ccc(C(=O)NCc3cccc(CNc4ccnc(NC[C@H]5CCCO5)n4)c3)o1)C(C)(C)CCC2(C)C (stereo in doubt)
1.5 h

Please list half-life recorded for the compound COc1cc2c(cc1Cc1ccc(C(=O)Nc3c(OC)cc(OC)c(C#N)c3OC)o1)C(C)(C)CCC2(C)C
3.8 h

Please list half-life recorded for the compound COc1cc(OC)c(NC(=O)c2ccc(Cc3cc4c(cc3C)C(C)(C)CC4(C)C)o2)c(OC)c1
2.1 h
